Origin of the recorded values: patent US9908886B2

- SYSTEM UNDER TEST: MNK1 (Homo sapiens)
- TEST SUMMARY: In vitro MNK kinase assay (Caliper LabChip mobility shift)
- Assay type: biochemical
- CONDITION: enzymatic, 1.2 mM ATP; read-out: IC50 Mnk1

# STRUCTURE SMILES, IC50
records = [
    ("CN1CCN(C(=O)c2ccc(-c3ccc4ncc(-c5ccc(C#N)cc5)n4c3)c(O)c2)CC1", "< 100 nM"),
    ("CN1CCN(C(=O)c2ccc(-c3ccc4ncc(-c5ccc(C#N)cc5)n4c3)c(F)c2)CC1", "< 100 nM"),
    ("CNc1cc(-c2ccc3ncc(-c4ccc(C#N)cc4)n3c2)ccc1C(=O)N1CCN(C)CC1", "< 100 nM"),
    ("N#Cc1ccc(-c2cnc3ccc(-c4ccc(C(=O)N5CCNCC5)cc4)nn23)cc1", "< 100 nM"),
    ("N#Cc1ccc(-c2cnc3ccc(-c4ccc(C(=O)NCCN5CCOCC5)cc4)cn23)cc1", "< 1000 nM"),
    ("N#Cc1ccc(-c2cnc3ccc(-c4ccc(C(=O)N5CCOCC5)cc4)nn23)cc1", "< 100 nM"),
    ("CN1CCN(C(=O)c2ccc(-c3ccc4ncc(-c5ccc6c(c5)CC(=O)N6)n4n3)cc2)CC1", "< 100 nM"),
    ("CN1CCCN(C(=O)c2ccc(-c3cn4c(-c5ccc(C#N)cc5)cnc4cn3)cc2)CC1", "< 1000 nM"),
]
